- Study System: Protein phosphatase EYA2 (Homo sapiens)
- Test Description: qHTS for Inhibitors of the Phosphatase Activity of Eya2: Confirmatory Assay for Cherry-picked Compounds; note: nearly all actives have a fitted effect of over 65% in size; note: potency is the fitted concentration of half-maximal effect
- Condition Info: purified EYA2 phosphatase activity, qHTS confirmation; series mostly up to 46.1 µM
In all, about 1,300 compounds went through this assay and about 460 (35%) were called active. Not shown: some 39% with an inconclusive outcome. The list shows a part of the results.
Test Readout: Potency

[[record]]
molecule = "CC(SC1=NCCS1)C(=O)Nc1nnc(-c2ccc(Br)cc2)s1 (configuration not stated)"
test_readout = "Potency"
data_value = "6.01 µM (active)"

[[record]]
molecule = "O=C(Oc1ccc(C(=S)N2CCOCC2)cc1)c1ccc(F)cc1"
test_readout = "Potency"
data_value = "7.57 µM (active)"

[[record]]
molecule = "OCCN(Cc1cccnc1)Cc1ccccn1"
test_readout = "Potency"
data_value = "5.36 µM (active)"

[[record]]
molecule = "CCOc1ccccc1O[C@H](c1ccccc1)[C@H]1CNCCO1"
test_readout = "Potency"
data_value = "inactive"

[[record]]
molecule = "COc1cc(N(C)C)ccc1/C=C1\\C=Cc2ccccc21"
test_readout = "Potency"
data_value = "7.57 µM (active)"

[[record]]
molecule = "O=C1C(=Cc2ccco2)CCC1=Cc1ccco1"
test_readout = "Potency"
data_value = "4.78 µM (active)"

[[record]]
molecule = "COc1ccc(-c2ccc(SCc3cccnc3)nn2)cc1OC"
test_readout = "Potency"
data_value = "16.9 µM (active)"

[[record]]
molecule = "O=C(O)c1cccc(N2C(=O)c3cccc(Oc4ccc(Cl)cc4)c3C2=O)c1"
test_readout = "Potency"
data_value = "inactive"

[[record]]
molecule = "COc1cc(N(C)C)c(OC)cc1/C=C1\\C=Cc2ccccc21"
test_readout = "Potency"
data_value = "5.36 µM (active)"

[[record]]
molecule = "CCc1cc2c(=O)[nH]c(-c3ccccn3)nc2s1"
test_readout = "Potency"
data_value = "1.69 µM (active)"

[[record]]
molecule = "Cc1nn2c(c1-c1ccccc1)NC1=C(C(=O)CCC1)C2c1ccccc1 (configuration not stated)"
test_readout = "Potency"
data_value = "inactive"

[[record]]
molecule = "NC(=O)C1CCN(CC(=O)Nc2ccc3c(c2)OCO3)CC1"
test_readout = "Potency"
data_value = "inactive"


----------
- Study System: Protein phosphatase EYA2 (Homo sapiens)
- Test Description: qHTS for Inhibitors of the Phosphatase Activity of Eya2: Confirmatory Assay for Cherry-picked Compounds; note: nearly all actives have a fitted effect of over 65% in size
- Condition Info: purified EYA2 phosphatase activity, qHTS confirmation; series mostly up to 46.1 µM
The campaign covered roughly 1,300 compounds. About 460 (35%) were called active. About 39% were inconclusive and are not listed. Calls come from the whole dose curve; as a rule, active = well fitted inhibition curve with a large enough effect; inconclusive = small, poorly fitted or top-dose-only effect; inactive = flat fitted curve, though single readings scatter. The list shows a part of the results.
Outcome codes: 1.0 (active), 0.0 (inactive)

[[record]]
compound = "Cc1ccc(C(=O)ON=C2CCN(c3ccc([N+](=O)[O-])cc3)CC2)cc1"
label_class = 0.0

[[record]]
compound = "Cc1cc(C)n2nc(SCCOc3ccccc3F)nc2n1"
label_class = 1.0

[[record]]
compound = "Cc1nc(COC(=O)c2c(C)nn(-c3ccccc3)c2C)cs1"
label_class = 0.0

[[record]]
compound = "COc1cc2nc(/C=C/c3ccc(N(C)C)cc3)sc2cc1SC"
label_class = 1.0

[[record]]
compound = "CC(=O)c1ccc(OC(=O)/C=C/c2ccccc2)cc1"
label_class = 1.0

[[record]]
compound = "Cc1cc(C)n2nc(C(=O)NC3CCCc4ccccc43)nc2n1 (stereo unspecified)"
label_class = 0.0


----------
- Study System: Protein phosphatase EYA2 (Homo sapiens)
- Test Description: qHTS for Inhibitors of the Phosphatase Activity of Eya2: Confirmatory Assay for Cherry-picked Compounds; note: nearly all actives have a fitted effect of over 65% in size
- Condition Info: purified EYA2 phosphatase activity, qHTS confirmation; series mostly up to 46.1 µM
Out of some 1,300 compounds screened, about 460 (35%) were called active. About 39% were inconclusive and are not listed. Calls come from the whole dose curve; as a rule, active = well fitted inhibition curve with a large enough effect; inconclusive = small, poorly fitted or top-dose-only effect; inactive = flat fitted curve, though single readings scatter. The list shows a part of the results.
Outcome codes: True = active, False = inactive

[[record]]
molecule = "CC(=O)Nc1ccc(S(=O)(=O)O)c2cc(S(=O)(=O)O)c(N=Nc3ccc(N=Nc4ccc(S(=O)(=O)O)cc4)c4ccc(S(=O)(=O)O)cc34)c(O)c12"
label_class = "True"

[[record]]
molecule = "CC1=CC(=O)Nc2ncccc2O1"
label_class = "True"

[[record]]
molecule = "CC(Oc1ccc(F)cc1)C(=O)Nc1cc(S(=O)(=O)N2CCCCC2)ccc1N1CCN(C)CC1 (stereo not given)"
label_class = "False"

[[record]]
molecule = "CCN(CC)c1ccc(/C=N/N2CCN(Cc3ccccc3Cl)CC2)cc1"
label_class = "True"

[[record]]
molecule = "Cn1c(N)c(C(=O)CSc2nnc(NC3CCCCC3)s2)c(=O)n(C)c1=O"
label_class = "False"

[[record]]
molecule = "CCOc1ccc(S(=O)(=O)N2CCN(C)CC2)cc1NC(=O)c1ccccc1F"
label_class = "True"

[[record]]
molecule = "COc1ccccc1C(=O)Nc1c[nH]c(=O)[nH]c1=O"
label_class = "False"

[[record]]
molecule = "COc1ccc(Nc2nc(-c3c(C)nc4ncccn34)cs2)cc1"
label_class = "True"

[[record]]
molecule = "O=C(Nc1ccccc1)C1=C(c2ccccc2)S(=O)(=O)CCS1(=O)=O"
label_class = "True"

[[record]]
molecule = "O=C(CSc1nc(-c2ccccc2)nc2c1Cc1ccccc1O2)Nc1ccc(C(=O)O)cc1"
label_class = "True"


----------
- Study System: Protein phosphatase EYA2 (Homo sapiens) (UniProt O00167)
- Sequence (O00167 whole entry, looked up): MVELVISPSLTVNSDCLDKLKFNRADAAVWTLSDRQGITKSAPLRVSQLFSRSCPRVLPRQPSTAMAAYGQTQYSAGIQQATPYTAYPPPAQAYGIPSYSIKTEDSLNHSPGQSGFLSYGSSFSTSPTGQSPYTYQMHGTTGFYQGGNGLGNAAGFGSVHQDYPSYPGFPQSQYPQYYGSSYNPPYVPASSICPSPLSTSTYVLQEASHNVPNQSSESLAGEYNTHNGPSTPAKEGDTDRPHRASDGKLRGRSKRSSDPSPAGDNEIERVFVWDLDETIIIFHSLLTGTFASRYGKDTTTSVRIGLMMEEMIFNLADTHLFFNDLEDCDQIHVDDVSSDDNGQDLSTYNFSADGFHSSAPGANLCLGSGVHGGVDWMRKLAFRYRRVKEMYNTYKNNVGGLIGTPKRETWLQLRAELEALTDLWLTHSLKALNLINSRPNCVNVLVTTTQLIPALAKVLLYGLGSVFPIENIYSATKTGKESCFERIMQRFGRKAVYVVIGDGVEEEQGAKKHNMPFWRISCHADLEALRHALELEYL
- Test Description: qHTS for Inhibitors of the Phosphatase Activity of Eya2: Confirmatory Assay for Cherry-picked Compounds; note: nearly all actives have a fitted effect of over 65% in size
- Condition Info: purified EYA2 phosphatase activity, qHTS confirmation; series mostly up to 46.1 µM
Screen size: about 1,300 compounds; about 460 (35%) were called active. Roughly 39% stayed inconclusive and do not appear here. The call rests on the fitted dose curve; in most records, active means well fitted inhibition curve with a large enough effect; inconclusive means small, poorly fitted or top-dose-only effect; inactive means flat fitted curve, though single readings scatter. The list shows a part of the results.
Outcome codes: label 1 for active, label 0 for inactive

[[record]]
compound = "CCOc1cccc(CN2CCC(CCC(=O)NC3CC3)CC2)c1O"
label_class = "label 0"

[[record]]
compound = "Cc1ccc(O)c(C(=O)c2cnc3c(c2)c(-c2ccc(F)cc2)c(C#N)c(=O)n3C)c1"
label_class = "label 0"

[[record]]
compound = "CCn1c(C)cc(/C=C2/SC(=O)N(C(C)C(=O)OC)C2=O)c1C (stereo not drawn)"
label_class = "label 0"

[[record]]
compound = "OC(c1ccc(Cl)cc1)c1nccc2ccccc12 (stereo not drawn)"
label_class = "label 0"

[[record]]
compound = "CC(C)(C)NC(=O)c1cccc(NC(=O)c2ccc(NC(=O)c3ccco3)cc2)c1"
label_class = "label 0"

[[record]]
compound = "O=C(O)c1ccc2nc(-c3ccco3)c(-c3ccco3)nc2c1"
label_class = "label 1"

[[record]]
compound = "COc1ccc(N(CC(=O)Nc2nc3ccc(C)cc3s2)S(=O)(=O)c2c(C)nn(C)c2C)cc1"
label_class = "label 0"

[[record]]
compound = "O=C(O)c1ccc(-c2ccc(/C=c3/sc4nc5ccccc5n4c3=O)o2)cc1Cl"
label_class = "label 1"

[[record]]
compound = "CN(C)c1ccc(/C=C2\\c3ccccc3-c3ccc(N(C)C)cc32)cc1"
label_class = "label 1"

[[record]]
compound = "COc1ccccc1Nc1nc(-c2ccc3c(c2)NC(=O)CO3)cs1"
label_class = "label 0"

[[record]]
compound = "O=C(c1cccc(S(=O)(=O)Nc2ccccc2Cl)c1)N1CCN(c2ccccc2O)CC1"
label_class = "label 1"

[[record]]
compound = "CCOC(=O)C(C)N1C(=O)S/C(=C\\c2ccc(-c3ccccc3C(=O)O)o2)C1=O (stereo not drawn)"
label_class = "label 1"

[[record]]
compound = "Cc1cnc2c(C)cccc2c1/C=C/c1ccc(N(C)C)cc1"
label_class = "label 1"

[[record]]
compound = "N#Cc1c(N)n(-c2ccc(C(=O)O)cc2)c2nc3ccccc3nc12"
label_class = "label 1"

[[record]]
compound = "CCN(CC)C(=O)c1ccc(O)c(OC)c1"
label_class = "label 0"

[[record]]
compound = "O=C(c1ccc2c(=O)n3c(nc2c1)CCCCC3)N1CCN(c2cccc(Cl)c2)CC1"
label_class = "label 1"

[[record]]
compound = "CC(C)N=c1cc2n(-c3ccc(Cl)cc3)c3ccccc3nc-2cc1Nc1ccc(Cl)cc1"
label_class = "label 1"

[[record]]
compound = "Cc1cccc(N2CC(C(=O)OCC(=O)c3ccc(OC(=O)c4cccs4)cc3)CC2=O)c1C (stereo not drawn)"
label_class = "label 1"

[[record]]
compound = "Oc1c(C(c2ccc(Cl)cc2)N2CCCC2)cc(Cl)c2cccnc12 (stereo not drawn)"
label_class = "label 1"

[[record]]
compound = "CCOC(=O)C1CCCN(C2=C(NS(=O)(=O)c3ccc(Br)cc3)C(=O)c3ccccc3C2=O)C1 (stereo not drawn)"
label_class = "label 1"

[[record]]
compound = "N=C1/C(=C/c2ccc(-c3cccc(C(=O)O)c3)o2)C(=O)N=C2SC=C(c3ccccc3)N12"
label_class = "label 0"

[[record]]
compound = "COc1ccc(-c2cc(C3CCNCC3)[nH]n2)cc1"
label_class = "label 0"

[[record]]
compound = "Cc1ccc(C)c2c(/C=C/c3ccc(N(C)C)cc3)ccnc12"
label_class = "label 1"

[[record]]
compound = "CCOC(=O)c1c2ccc(OCC(=O)NN)cc2n2ccccc12"
label_class = "label 0"

[[record]]
compound = "N#Cc1c(N)n(-c2cccc(C(=O)O)c2)c2nc3ccccc3nc12"
label_class = "label 1"

[[record]]
compound = "CC(C)S(=O)(=O)c1cnc(-c2ccccn2)nc1N"
label_class = "label 1"

[[record]]
compound = "Cc1cnc2c(C)ccc(C)c2c1/C=C/c1ccc(N(C)C)cc1"
label_class = "label 1"

[[record]]
compound = "COCCNC(=O)c1cccc(OC2CCN(Cc3ccc(F)cc3OC)CC2)c1"
label_class = "label 0"

[[record]]
compound = "Cc1c(C(=O)O)cccc1-c1ccc(/C=C2\\SC(=O)NC2=O)o1"
label_class = "label 0"

[[record]]
compound = "CN(C)c1ccc(C2C=Cc3ccccc32)c2ccccc12 (stereo not drawn)"
label_class = "label 1"

[[record]]
compound = "CCN(CC)c1ccc(NC(=O)c2ccc3c(c2)c(C)c(C)n3C)cc1"
label_class = "label 1"

[[record]]
compound = "CCOC(=O)CNC(=O)C1CCCN(c2ncccn2)C1 (stereo not drawn)"
label_class = "label 0"

[[record]]
compound = "CC1(C)CC(=O)C(C2C3=C(CC(C)(C)CC3=O)Oc3c(Br)cc(Br)cc32)=C(O)C1 (stereo not drawn)"
label_class = "label 1"

[[record]]
compound = "Cc1cc(NC(=O)c2cccs2)cc(-c2nc3ncccc3o2)c1O"
label_class = "label 0"

[[record]]
compound = "Cc1ccc(CN2CCN(/N=C/c3ccc(C)s3)CC2)c(C)c1"
label_class = "label 1"

[[record]]
compound = "COc1cc(NC(=O)c2cccs2)c(OC)cc1NC(=O)CCn1nnc2ccccc21"
label_class = "label 1"

[[record]]
compound = "CCOC(=O)C1CCN(C2=C(NS(=O)(=O)c3ccc(Br)cc3)C(=O)c3ccccc3C2=O)CC1"
label_class = "label 1"

[[record]]
compound = "COc1ccc2ccccc2c1C=NN1CCCCC1"
label_class = "label 1"

[[record]]
compound = "COc1ccc(OC)c(Nc2nc(-c3sc(N)nc3C)cs2)c1"
label_class = "label 1"

[[record]]
compound = "Cc1cc(C)c2c(/C=C/c3ccc(N(C)C)cc3)ccnc2c1"
label_class = "label 1"

[[record]]
compound = "COc1cc(NC(=O)c2cccs2)c(OC)cc1NC(=O)CCC(=O)Nc1ccc2ncccc2c1"
label_class = "label 1"

[[record]]
compound = "CN(C)C(C)(C)C#CC(O)(c1ccccc1)c1ccccc1"
label_class = "label 0"

[[record]]
compound = "CN1CCN(C(c2ccccn2)c2cc(Cl)c3cccnc3c2O)CC1 (stereo not drawn)"
label_class = "label 1"

